Cited source: patent US6020521A

# measured.target: LHRH rat pituitary receptor (Rattus norvegicus)
# Sequence (P30969 1-327): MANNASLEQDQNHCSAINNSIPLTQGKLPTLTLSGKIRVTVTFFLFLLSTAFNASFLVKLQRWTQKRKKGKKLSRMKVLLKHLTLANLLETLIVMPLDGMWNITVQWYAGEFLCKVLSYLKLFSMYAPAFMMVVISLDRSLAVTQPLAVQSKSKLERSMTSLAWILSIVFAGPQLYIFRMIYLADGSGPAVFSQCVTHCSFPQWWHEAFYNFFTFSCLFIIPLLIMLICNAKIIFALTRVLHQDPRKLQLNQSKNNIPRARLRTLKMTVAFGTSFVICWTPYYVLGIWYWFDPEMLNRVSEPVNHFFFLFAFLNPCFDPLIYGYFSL
readout.type: Ki (nM)

CC[C@H]1OC(=O)[C@H](C)[C@@H](OC(=O)N2C(=O)OC[C@@H]2C)[C@H](C)[C@@H](O[C@@H]2O[C@H](C)C[C@H](N(C)C)[C@H]2O)[C@](C)(OC)C[C@@H](C)C(=O)[C@H](C)[C@H]2N(CCc3ccc(Cl)c(Cl)c3)C(=O)O[C@]12C :: 3.16

a: CC[C@H]1OC(=O)[C@H](C)[C@@H](OC(=O)N2C(=O)OC[C@@H]2C)[C@H](C)[C@@H](O[C@@H]2O[C@H](C)C[C@H](N(C)C(C)C)[C@H]2O)[C@](C)(OC)C[C@@H](C)C(=O)[C@H](C)[C@H]2N(CCc3ccc(F)cc3)C(=O)O[C@]12C
b: CC[C@H]1OC(=O)[C@H](C)[C@@H](OC(=O)N2C(=O)OC[C@@H]2C)[C@H](C)[C@@H](O[C@@H]2O[C@H](C)C[C@H](N(C)C3CCC3)[C@H]2O)[C@](C)(OC)C[C@@H](C)C(=O)[C@H](C)[C@H]2N(CCc3ccc(Cl)cc3)C(=O)O[C@]12C
c: CC[C@H]1OC(=O)[C@H](C)[C@@H](OC(=O)N2C[C@@H](C)OC2=O)[C@H](C)[C@@H](O[C@@H]2O[C@H](C)C[C@H](N(C)CC3CC3)[C@H]2O)[C@](C)(OC)C[C@@H](C)C(=O)[C@H](C)[C@H]2N(CCc3ccc(Cl)c(Cl)c3)C(=O)O[C@]12C
Could you please order the items by Ki, going from the lowest number to the highest? Please, when replying, give the labels in the order that was requested. a, b, c
